Origin of the recorded values: the Human Domainome abundance scans (Beltran et al. 2025)

Readings of abundance fitness for the listed variants
B1: FERM and PDZ domain-containing protein 4, residues 75 to 154; numbered along this chain, Q14CM0 (parent)
chain: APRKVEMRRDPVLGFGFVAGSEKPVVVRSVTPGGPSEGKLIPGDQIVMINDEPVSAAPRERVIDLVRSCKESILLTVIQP

variants of: B1; assay: abundance fitness (aPCA) (normalised: wild type 0, dead -1); higher = more abundant; growth selection in yeast, the domain comes from the species named; details: Homo sapiens
// no unit string in output, number only

Illustrative cases are given below, each with its answer.
>>> print(df.to_string())
   mutation_key  recorded_measurement
0          V26M                -0.012
1          V27M                -0.799

# return recorded abundance fitness for entry R9I
-0.142

# return recorded abundance fitness for entry R67V
-0.079
